EXPERIMENTAL_TARGET: T1, TNFR1 (Homo sapiens, UniProt P19438)
T1 chain: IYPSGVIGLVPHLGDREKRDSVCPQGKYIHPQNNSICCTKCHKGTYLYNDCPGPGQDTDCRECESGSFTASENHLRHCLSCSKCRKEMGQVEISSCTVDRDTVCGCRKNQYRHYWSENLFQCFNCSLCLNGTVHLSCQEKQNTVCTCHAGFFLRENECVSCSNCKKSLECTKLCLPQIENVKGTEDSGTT
MEASUREMENT_DESCRIPTION: yeast display SC50
RESULT_TYPE: apparent Kd (screen) (nM)

Recorded apparent Kd (screen), per entry:
# BINDER, apparent Kd (screen), nM
data = [
    ("L43A (designed binder) SMEEEVEKAAKEYEKKKKEAIEKHLEKLKAKDKEAAERFLKEAEEAAKEYAKDEAKTMSEEEAKRRAKKYKEKVLLSELSEEEQKEIKEAEEKLVRTILKYVEEAAK", 0.49),
    ("E5N (designed binder) SMEENVEKAAKEYEKKKKEAIEKHLEKLKAKDKEAAERFLKELEEAAKEYAKDEAKTMSEEEAKRRAKKYKEKVLLSELSEEEQKEIKEAEEKLVRTILKYVEEAAK", 0.539),
]

[1] V102P (designed binder) SMEEEVEKAAKEYEKKKKEAIEKHLEKLKAKDKEAAERFLKELEEAAKEYAKDEAKTMSEEEAKRRAKKYKEKVLLSELSEEEQKEIKEAEEKLVRTILKYPEEAAK
[2] K31Q (designed binder) SMEEEVEKAAKEYEKKKKEAIEKHLEKLKAQDKEAAERFLKELEEAAKEYAKDEAKTMSEEEAKRRAKKYKEKVLLSELSEEEQKEIKEAEEKLVRTILKYVEEAAK
Between 1 and 2 , whose measured apparent Kd (screen) reads higher? Mark your selection by writing its label.
2
(2: 1.16 nM, 1: 0.49 nM)

Hello, the source for this data is paper PMC12416549, in case you need it.
